B1: tRNA (parent)
chain: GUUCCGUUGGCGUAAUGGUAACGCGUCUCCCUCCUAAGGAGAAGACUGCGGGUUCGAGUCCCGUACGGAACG

# Variants of: B1
# Method notes: yeast fitness relative to wild type (ratio to wild type); higher = fitter; tRNA-Arg(CCU), competitive growth, 37 C, YPD
Variants at the floor of the assay were thinned out.
Classify as follows. Reported yeast fitness greater than or equal to 0.7: T. Reported yeast fitness below: F.

Reference set, count: 8
GUUCUGUUGGCGUAAUGGUAACGCGUCUCCCUCCUAAGGAGAAGUGUGCGGGUUCGAGUACCGUACGGAACG [C5U A45U C46G C60A]	F
GUUCCAUUGGCGUAAUGGUAACGCGUCUCCCUGGUAAGGAGAAGACUGCGGGUUCGAGUACCGUACGGUACG [G6A C33G C34G C60A A69U]	F
GUUCCGUUGGCGUAAUGGUAACGCGUCUCCCUCCUAAGGAGAAGACAGCGGGUUCGAGACCCGGACGGAACG [U47A U59A U64G]	F
GUUCCGUUGGCGUAAUGGUAAAGGGUCUCCCUCCUAAGGAGAAGCCUGCGGGUUCGAGUCCCGUACGGAACG [C22A C24G A45C]	F
GUUCCGUUGGCGUAGUGGUAACGCGUGUCCCUCCUUAGCAGAAGACUGCGGGUUCGAGUCCCGUACGGCACG [A15G C27G A36U G39C A69C]	F
GUUCCGUUGGCGUCAUGGUAACGGGUCUCCCUCCUAAGGAGGAGACUGCGGGUUCGAGUCCCGUACGGAACG [A14C C24G A42G]	F
GUUCCGUUGGCGUAAUGGUUACGCGUCUCCUUCCUAAGGAGAAGACUGCGGGUUCAAGUCCCGUACGGCACG [A20U C31U G56A A69C]	F
GUUCCGUUGGCGUAAUGGUAACGCGUCUCCCUCCUAAGGAGAUGACUGUGGGUUCGAGUCCCGUACGGAACG [A43U C49U]	T

Test whether the variant GUUCCGUUGACAUAAUGGUAACGCGUCUCCCUCUUAAGGAGAAGUCUGGGGGUUCGAGUCCCGUACGGAACG [G10A G12A C34U A45U C49G] records yeast fitness of 0.7 or higher. F

Is yeast fitness for GUUCCGUUGGCGUAAUGGUAACGCGUCUCCCUCCUAAGGAGACGACUGCGGGUUGGAGUCCCGUACGGAACG [A43C C55G] at or above 0.7? F

Would you say GUUGCGUUGGCGUAAUGGUAACGAGUCUCCCUCCUAAGGAGUAGACAGCGGGUUCGAGUGCCGUACGGAACG [C4G C24A A42U U47A C60G] shows yeast fitness at minimum 0.7? F

// inclusive: yeast fitness at least 0.7? input: GUUCCGUUGGCGUUAUGGUAACGCGUCUCUCUCCUAAGGAGAAGACUGCGGGUUCGAGUACCGUAUGGAACG [A14U C30U C60A C66U] F

I'd appreciate it if you could say whether GUUCCGUAGGCGUAAUGGUAACGCGUCUUCCUCCUAAGGAGAAGACUGCGCGUUCGAGUCCCGUACGGAACG [U8A C29U G51C] has yeast fitness at least equal to 0.7. F

Say whether GUUCCGUUGGUGUAAUGGUAACGCGUCUCCCUCCAAAGGAGAAGACUGCGGGUUCCAGUCCCGUACGGAACG [C11U U35A G56C] shows yeast fitness of 0.7 or more. F

Textbook exercise: given the entry GUUCCCUUGGCGUAAUGGCAAAGCGUCUCCCUCCCAAGGAGAAGACUGCGGGUUCGAGUCCCGUACGGUACG [G6C U19C C22A U35C A69U] , state whether its yeast fitness is greater than or equal to 0.7. F

Recorded values, source the RNAGym collection of RNA variant scans (doi:10.1126/science.aae0568).
